test_details: Single-dose intravenous and oral pharmacokinetic study in rats
Type: in vivo, Sprague-Dawley (SD) rats
run_conditions: Sprague-Dawley, rat; male SD rats, IV 2 mg/kg, plasma
Experimental: Six male Sprague-Dawley (SD) rats were randomly divided into two groups, with three rats in each group. Compound 1 was administered either by intravenous injection at a dose of 2 mg/kg or by oral gavage at a dose of 10 mg/kg. The dosing volumes were 5 mL/kg for intravenous administration and 10 mL/kg for oral administration, with purified water used as the solvent. […] The plasma concentration of Compound 1 was determined using LC-MS/MS.
endpoint_label: AUC(0-t) (ng·h/mL)
Please respond with the number in ng·h/mL and leave the unit unwritten.

input: State its AUC(0-t): CC(=O)c1c(C)c2c(n(C3CCCC3)c1=O)=NC(Nc1ccc(N3CCN(S(=O)(=O)NCCN)CC3)cn1)NC=2 (stereo not shown)
output: 602

* * *

test_details: Single-dose intravenous and oral pharmacokinetic study in rats
Type: in vivo, Sprague-Dawley (SD) rats
run_conditions: Sprague-Dawley, rat; male SD rats, IV 2 mg/kg, plasma; read-out: Vdss
endpoint_label: Vd (L/kg)
Kindly provide the numeric value in L/kg only, without the unit symbol.

input: Supply reported Vd belonging to this compound: CC(=O)c1c(C)c2c(n(C3CCCC3)c1=O)=NC(Nc1ccc(N3CCN(S(=O)(=O)NCCN)CC3)cn1)NC=2 (stereo not shown) [Compound 1]
output: 9.61

* * *

measured_target: CDK4/cyclin D (Homo sapiens, UniProt P11802)
Sequence (P11802 whole entry): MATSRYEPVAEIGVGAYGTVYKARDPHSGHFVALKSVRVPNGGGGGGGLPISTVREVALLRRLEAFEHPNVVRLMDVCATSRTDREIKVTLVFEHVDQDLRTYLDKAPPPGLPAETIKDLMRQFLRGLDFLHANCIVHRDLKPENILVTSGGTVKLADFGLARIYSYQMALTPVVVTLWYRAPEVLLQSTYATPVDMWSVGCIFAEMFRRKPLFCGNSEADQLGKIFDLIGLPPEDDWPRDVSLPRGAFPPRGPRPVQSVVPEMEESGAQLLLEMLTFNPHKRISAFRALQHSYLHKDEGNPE
Sequence (P30281 whole entry partner): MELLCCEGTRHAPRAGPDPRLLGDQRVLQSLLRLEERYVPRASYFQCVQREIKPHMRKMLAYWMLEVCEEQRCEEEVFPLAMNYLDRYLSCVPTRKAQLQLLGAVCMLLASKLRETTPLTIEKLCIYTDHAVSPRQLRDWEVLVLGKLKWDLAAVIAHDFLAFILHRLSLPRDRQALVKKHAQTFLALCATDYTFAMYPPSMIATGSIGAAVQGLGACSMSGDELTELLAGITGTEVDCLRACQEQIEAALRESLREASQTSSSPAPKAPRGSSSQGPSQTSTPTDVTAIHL
test_details: KinaseProfile radiometric protein kinase assay, CDK4/cyclin D
pIC50: −log10 of the molar value.
pIC50 for assorted compounds

Solved cases (5 shown):
compound=CC(=O)c1c(C)c2cnc(Nc3ccc(N4CCN(S(=O)(=O)NCC(C)(C)N)CC4)cn3)nc2n(C2CCCC2)c1=O reported="> 7.30"
compound="CC(=O)c1c(C)c2cnc(Nc3ccc(N4CCN(S(=O)(=O)NCC(C)CN)CC4)cn3)nc2n(C2CCCC2)c1=O (stereo not drawn)" reported="> 7.00"
compound="CC(=O)c1c(C)c2c(n(C3CCCC3)c1=O)=NC(Nc1ccc(N3CCN(S(=O)(=O)NCCN)CC3)cn1)NC=2 (stereo not drawn)" reported="> 7.30"
compound="CC(=O)c1c(C)c2cnc(Nc3ccc(N4CCN(S(=O)(=O)NCC(C)N)CC4)cn3)nc2n(C2CCCC2)c1=O (stereo not drawn)" reported="> 7.30"
compound=CC(=O)c1c(C)c2cnc(Nc3ccc(N4CCN(S(=O)(=O)NCC(C)(C)CN)CC4)cn3)nc2n(C2CCCC2)c1=O reported="> 7.30"

Let us examine a further case.
input: Supply pIC50 value. Item: "CC(=O)c1c(C)c2cnc(Nc3ccc(N4CCN(S(=O)(=O)NCCCN)CC4)cn3)nc2n(C2CCCC2)c1=O"
output: > 7.30

* * *

test_details: Single-dose intravenous and oral pharmacokinetic study in mice
Format: in vivo, Balb/c mice
run_conditions: mouse; male Balb/c mice, PO 50 mg/kg, plasma
endpoint_label: half-life (h)
Provide only the numeric value, understood in h.

input: Give the measured half-life for CC(=O)c1c(C)c2cnc(Nc3ccc(N4CCNCC4)cn3)nc2n(C2CCCC2)c1=O [palbociclib, reference compound]
output: 7.64

* * *

Entries and their Relief rate of 5-FU -induced cell apoptosis values follow.
Tested on: Human colorectal cancer COLO205 cells
test_details: Cell apoptosis assay (Caspase-Glo 3/7), 5-FU-induced apoptosis
Assay type: cell-based
run_conditions: concentration 1 μM
Give a bare numeral; the unit % is implied.

molecule="CC(=O)c1c(C)c2cnc(Nc3ccc(N4CCN(S(=O)(=O)NCC(C)(C)CN)CC4)cn3)nc2n(C2CCCC2)c1=O [Compound 6]" measured_target="Human colorectal cancer COLO205 cells" reported=40
molecule="CC(=O)c1c(C)c2c(n(C3CCCC3)c1=O)=NC(Nc1ccc(N3CCN(S(=O)(=O)NCCN)CC3)cn1)NC=2 (stereo not shown) [Compound 1]" measured_target="Human colorectal cancer COLO205 cells" reported=60
molecule="CC(=O)c1c(C)c2cnc(Nc3ccc(N4CCN(S(=O)(=O)NCC(C)N)CC4)cn3)nc2n(C2CCCC2)c1=O (stereo not shown) [Compound 3]" measured_target="Human colorectal cancer COLO205 cells" reported=40

Proceeding to the next molecule to report its Relief rate of 5-FU -induced cell apoptosis.
input: Provide Relief rate of 5-FU -induced cell apoptosis value for the following molecule: CC(=O)c1c(C)c2cnc(Nc3ccc(N4CCN(S(=O)(=O)NCC(C)(C)N)CC4)cn3)nc2n(C2CCCC2)c1=O [Compound 2]
output: 40
